Collected stoichiometry N values appear next to each entry.
biological target: T1, C-terminal cargo-binding domain (CBD) of Myosin VI (residues 1157–1285) (human, UniProt Q9UM54-1 1157-1285); assay: ITC; 25 °C, 20 mM Tris pH 7.9, 100 mM NaCl, 1 mM DTT; 50 µM protein in the cell, 500 µM in the syringe; one-site binding model; conditions: both partners purified
T1 construct: monomer by light scattering and ultracentrifugation; 15N-labelled in some NMR experiments; also called C-terminal CBD of Myosin VI; source: E. coli BL21 (DE3), purified (Ni-NTA, SEC); not shown: thioredoxin, N-terminal, cleaved; His6, N-terminal, cleaved
T1 sequence (Q9UM54 1166-1294): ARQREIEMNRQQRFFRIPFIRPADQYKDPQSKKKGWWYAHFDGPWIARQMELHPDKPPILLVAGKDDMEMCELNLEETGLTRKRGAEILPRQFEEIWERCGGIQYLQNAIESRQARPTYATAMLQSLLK
Provide a numeric answer; units are not to be included.

For the binder shown here, Tom1(437–493) (domain or fragment, human, UniProt O60784-2 437-493, looked up, source: E. coli BL21 (DE3), purified (Ni-NTA, SEC); not shown: thioredoxin, N-terminal, cleaved; His6, N-terminal, cleaved) GVTSEGKFDKFLEERAKAADRLPNLSSPSAEGPPGPPSGPAPRKKTQEKDDDMLFAL , give the reported stoichiometry N.
0.83
